System: TK-10 renal
experiment: NCI-60 one-dose screen, 48 h
particulars: 10 µM unless noted
About 83,000 compounds went through this panel and 20% of them were active in at least one assay; those are over-represented in the sample as a whole. Calls of active or inactive are those of the source. The calls were made as follows: active = growth percent below 10; inactive = the rest.
Labels: yes (1) = active, no (0) = inactive

>  <compound>
O=C(Nc1ccc(F)c(Cl)c1)Nc1ccc(Cl)c(Cl)c1

>  <class.name>
no (0)

$$$$
>  <compound>
CCOc1c(Br)cc(C2C(C(=O)OC)=CN(C)C=C2C(=O)OC)cc1OC

>  <class.name>
no (0)

$$$$
>  <compound>
CCCCN1CCN(c2ccc3nc(-c4ccc5nc(-c6ccc(OC)c(OC)c6)[nH]c5c4)[nH]c3c2)CC1

>  <class.name>
no (0)

$$$$
>  <compound>
O=c1oc2ccc(Br)cc2c(=O)n1-c1ccc(F)cc1F

>  <class.name>
no (0)

$$$$
>  <compound>
COc1nc2c(c(=O)n1C)N=C1c3ccccc3C(=O)C1C(c1ccccc1)N2 (stereo unspecified)

>  <class.name>
no (0)

$$$$
>  <compound>
CSc1nc2c(c(=O)[nH]1)N=C1c3ccccc3C(=O)C1C(c1ccc(F)cc1)N2 (stereo unspecified)

>  <class.name>
no (0)

$$$$
>  <compound>
COc1ccc(-c2cc(=O)c3c(OC)c4ccoc4c(/C=C/C=O)c3o2)cc1

>  <class.name>
no (0)

$$$$
>  <compound>
CCN1CCN(c2cc(C)c3cc(NC(=O)c4ccc(OC)c(OC)c4)ccc3n2)CC1

>  <class.name>
no (0)

$$$$
>  <compound>
CCN1C(=O)N(c2ccccc2)C2NN=c3s/c(=C4\C(=O)N(C(C)C)c5ccccc54)c(=O)n3C21 (stereo unspecified)

>  <class.name>
no (0)

$$$$
>  <compound>
O=c1oc2ccc(F)cc2c(=O)n1-c1ccc(I)cc1F

>  <class.name>
yes (1)

$$$$
>  <compound>
C1=CC2(C=C1)OC21CCC2(C=CC3(C2)OC3C2CCCCC2)CC1 (stereo unspecified)

>  <class.name>
no (0)

$$$$
>  <compound>
COc1ccc(/C=C2\NC(=O)NC2=O)cc1O

>  <class.name>
no (0)

$$$$
>  <compound>
O=c1cc(-c2ccccc2)oc2cc(OCc3cn(Cc4ccc(F)cc4)nn3)cc(OCc3cn(Cc4ccc(F)cc4)nn3)c12

>  <class.name>
no (0)

$$$$
>  <compound>
O=C1/C=C/[C@@H](O)[C@@H]2C[C@@H](O)C[C@H]2/C=C/CCCCO1

>  <class.name>
no (0)

$$$$
>  <compound>
CCCCNc1nc(NC(C)(C)C)nc(NC(C)(C)C)n1

>  <class.name>
no (0)

$$$$
>  <compound>
O=c1c(-c2nc3ccccc3[nH]2)cc2ccccc2n1Cc1cn(Cc2ccccc2Cl)nn1

>  <class.name>
no (0)

$$$$
>  <compound>
COc1cc(/C=C2\CN(C)C/C(=C\c3cc(CN4CCOCC4)c(O)c(OC)c3)C2=O)cc(CN2CCOCC2)c1O

>  <class.name>
no (0)

$$$$
>  <compound>
COc1ccc(Br)c(/C=C2\SC(=Nc3ccc(O)cc3)NC2=O)c1

>  <class.name>
no (0)

$$$$
>  <compound>
Clc1ncccc1Nc1ccc2nnc(-c3ccncc3)n2n1

>  <class.name>
no (0)

$$$$
>  <compound>
CCOc1cccc(/C=N\Nc2nc(=O)cc(C(=O)OC)s2)c1O

>  <class.name>
no (0)

$$$$
>  <compound>
CCOc1cccc(/C=N/NC(=O)C(=O)Nc2cccc(C(F)(F)F)c2)c1O

>  <class.name>
no (0)

$$$$
